experimental.system: T1, P7A
T1 chain: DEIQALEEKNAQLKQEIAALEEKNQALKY
method.description: two-hybrid library CCNG1;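 also: natural log of median RNA to DNA barcode read ratio; higher means stronger binding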
quantity.kind: interaction score
No unit in the answer, only the number.

Guide cases for interaction score, answers given:
- binder: "DKNAQLKEKIAALKEKIQQLKEENQALEY [P12A]"
  interaction score: -1.15
- binder: "DEIQQLKQEIQELEQKNQELKWEIQELKQ [4H570-bN]"
  interaction score: -1.87
- binder: "DKNAQLKEENAALEEKIQQLKEKIQALKY [P10A]"
  interaction score: 1.36
- binder: "DKNAALKEEIQALEEENQALEEKIAQLKY [P6A]"
  interaction score: -0.197
- binder: "DEIQALEEKNAQLKQEIAALEEKNQALKY [P7A]"
  interaction score: -0.598

With those in mind, consider the next binder.
Query block: # query: interaction score of entry DKIAQLKQKIQALKQENQQLEEENAALEY [P4A]
Result block: -2.13

Values compiled from paper PMC10397247.
